test: Chromatographic hydrophobicity index (CHI) by RP-HPLC in buffered methanol; format: physicochemical; conditions: isochratic and gradient elution of standard mixture

{"Compound structure string": "c1ccc2[nH]cnc2c1", "CHIMeOH^b (standard compounds)": 41.07}
{"Compound structure string": "CC(=O)c1ccccc1", "CHIMeOH^b (standard compounds)": 52.47}
{"Compound structure string": "Cn1c(=O)c2[nH]cnc2n(C)c1=O", "CHIMeOH^b (standard compounds)": 25.76}
{"Compound structure string": "Nc1ccccc1", "CHIMeOH^b (standard compounds)": 29.94}
{"Compound structure string": "CCCC(=O)c1ccccc1", "CHIMeOH^b (standard compounds)": 66.79}
{"Compound structure string": "Cn1c(=O)c2nc(-c3ccccc3)[nH]c2n(C)c1=O", "CHIMeOH^b (standard compounds)": 61.61}

----------
Below, each of the molecules is paired with its reported CHIACN^b (standard compounds) value.
experiment: Chromatographic hydrophobicity index (CHI) by RP-HPLC in buffered acetonitrile; format: physicochemical; conditions: isochratic and gradient elution of standard mixture

{"Compound structure string": "Cn1c(=O)c2[nH]cnc2n(C)c1=O", "CHIACN^b (standard compounds)": 32.63}
{"Compound structure string": "CC(=O)c1ccccc1", "CHIACN^b (standard compounds)": 61.93}
{"Compound structure string": "CCCCC(=O)c1ccccc1", "CHIACN^b (standard compounds)": 86.66}
{"Compound structure string": "CCCC(=O)c1ccccc1", "CHIACN^b (standard compounds)": 79.32}
{"Compound structure string": "c1ccc2[nH]cnc2c1", "CHIACN^b (standard compounds)": 43.18}

----------
system: HepG2 cells; conditions: compound at 6.25% of its IC50, CCl4 4.5×10^−3 M
Experimental readout: cytoprotection on HepG2 cells at 6.25% IC50

{"Molecule": "CC(=O)OC(C)(C)/C=C/C(=O)[C@](C)(O)[C@H]1[C@H](O)C[C@@]2(C)[C@@H]3CC=C4[C@@H](C=C(O[C@@H]5O[C@H](CO)[C@@H](O)[C@H](O)[C@H]5O)C(=O)C4(C)C)[C@]3(C)C(=O)C[C@]12C [E-Gluc, cucurbitacin E glucoside]", "System": "HepG2 cells", "Result number": "−2.36"}
{"Molecule": "CC(C)OC1=CC2C(=CCC3C2(C)C(=O)CC2(C)C(C(C)(O)C(=O)C=CC(C)(C)O)C(O)CC32C)C(C)(C)C1=O (stereo not shown)", "System": "HepG2 cells", "Result number": "−17.10"}
{"Molecule": "CC(=O)OC(C)(C)/C=C/C(=O)[C@](C)(O)[C@H]1[C@H](O)C[C@@]2(C)[C@@H]3CC=C4[C@H](C[C@H](O)C(=O)C4(C)C)[C@]3(C)C(=O)C[C@]12C", "System": "HepG2 cells", "Result number": 12.45}
{"Molecule": "CC(C)(O)/C=C/C(=O)[C@](C)(O)[C@H]1[C@H](O)C[C@@]2(C)[C@@H]3CC=C4[C@@H](C=C(O)C(=O)C4(C)C)[C@]3(C)C(=O)C[C@]12C", "System": "HepG2 cells", "Result number": 4.55}

----------
Below, each of the compounds is paired with its reported CHIMeOH^b (standard compounds) value.
experiment: Chromatographic hydrophobicity index (CHI) by RP-HPLC in buffered methanol; format: physicochemical; details: isochratic and gradient elution of standard mixture

{"Compound structure string": "CCC(=O)c1ccccc1", "CHIMeOH^b (standard compounds)": "60.41 + 0.04"}
{"Compound structure string": "Brc1ccccc1", "CHIMeOH^b (standard compounds)": "69.43 + 0.07"}
{"Compound structure string": "COc1cc2c(c(OC)c1OC)-c1ccc(OC)c(=O)cc1[C@@H](NC(C)=O)CC2", "CHIMeOH^b (standard compounds)": "57.56 + 0.04"}
{"Compound structure string": "CCCCC(=O)c1ccccc1", "CHIMeOH^b (standard compounds)": "73.05 + 0.12"}
